test system: HCT-116 cells; assay: Cytotoxicity, Sulforhodamine-B; assay type: cell-based; settings: Homo sapiens, HCT-116, 48 h, read-out: IC50 HCT-116
ENDPOINT LABEL: pIC50
The read-out pIC50 is expressed as -log10 of concentration in moles per litre.

Documented pIC50 of COc1ccc(NC(=O)c2c(Nc3ccccc3)sc(C(=O)NN=Cc3ccc(Cl)cc3)c2NC(C)=O)cc1 [Compound 17] : 5.03

Documented pIC50 of COc1ccc(C=NNC(=O)c2sc(Nc3ccccc3)c(C(=O)Nc3ccc(OC)cc3)c2NC(C)=O)cc1 [Compound 20] : 5.51

Documented pIC50 of COc1ccc(NC(=O)c2c(Nc3ccccc3)sc(C(=O)NN=Cc3cc(OC)c(OC)c(OC)c3)c2NC(C)=O)cc1 [Compound 23] : 5.19

Documented pIC50 of COc1ccc(NC(=O)c2c(Nc3ccccc3)sc(C#N)c2NC(=O)CNc2ccccc2)cc1 [Compound 4] : 4.19

Documented pIC50 of COc1ccc(NC(=O)c2c(Nc3ccccc3)sc(C(=O)NN=Cc3ccc(OC)c(O)c3)c2NC(C)=O)cc1 [Compound 21] : 5.36

Documented pIC50 of COc1ccc(NC(=O)c2c(Nc3ccccc3)sc(C(=O)NN=Cc3ccccc3)c2NC(C)=O)cc1 [Compound 16] : 4.72

Documented pIC50 of COc1ccc(NC(=O)c2c(Nc3ccccc3)sc(C#N)c2NC(=O)CNc2ccc(OC)c(OC)c2)cc1 [Compound 13] : 4.99

====

system: HCT-116 cells; test: Cytotoxicity, Sulforhodamine-B; format: cell-based; details: Homo sapiens, HCT-116, 48 h, read-out: IC50 HCT-116
ENDPOINT LABEL: pIC50
The read-out pIC50 is expressed as -log10 of concentration in moles per litre.

Documented pIC50 of COc1ccc(NC(=O)c2c(Nc3ccccc3)sc(C#N)c2NC(=O)CNc2ccc(C)cc2)cc1 : 4.73

Documented pIC50 of COc1ccc(NCC(=O)Nc2c(C#N)sc(Nc3ccccc3)c2C(=O)Nc2ccc(OC)cc2)cc1 : 4.67

Documented pIC50 of COc1ccc(NC(=O)c2c(Nc3ccccc3)sc(C#N)c2NC(=O)CNc2ccc([N+](=O)[O-])cc2)cc1 : 5.29

====

tested on: HCT-116 cells; assay: Cytotoxicity, Sulforhodamine-B; format: cell-based; conditions: Homo sapiens, HCT-116, 48 h, read-out: IC50 HCT-116
ENDPOINT LABEL: pIC50
The read-out pIC50 is expressed as -log10 of concentration in moles per litre.

Documented pIC50 of COc1ccc(NC(=O)c2c(Nc3ccccc3)sc(C#N)c2NC(=O)CNc2ccc(O)cc2)cc1 : 4.79

Documented pIC50 of COc1ccc(NC(=O)c2c(Nc3ccccc3)sc(C#N)c2NC(=O)CNc2ccccc2Cl)cc1 : 4.28

Documented pIC50 of COc1ccc(NC(=O)c2c(Nc3ccccc3)sc(C#N)c2NC(=O)CNc2ccc(Cl)cc2)cc1 : 5.11

Documented pIC50 of COc1ccc(NC(=O)c2c(Nc3ccccc3)sc(C#N)c2NC(=O)CNc2ccc(Br)cc2)cc1 : 5.50

Documented pIC50 of COc1ccc(NC(=O)c2c(Nc3ccccc3)sc(C(=O)NN=Cc3ccc(C)cc3)c2NC(C)=O)cc1 : 4.67

Documented pIC50 of COc1ccc(NC(=O)c2c(Nc3ccccc3)sc(C#N)c2NC(=O)CNc2ccccc2[N+](=O)[O-])cc1 : 4.22

Documented pIC50 of COc1ccc(NC(=O)c2c(Nc3ccccc3)sc(C(=O)NN=Cc3ccc(Br)cc3)c2NC(C)=O)cc1 : 5.13
